We begin with a simple list: items and their reported DC50.
- Assayed target: SMARCA4 (Homo sapiens, UniProt P51532)
- Construct: SMARCA2/SMARCA4 protein degradation selectivity in MV4-11 cells; endogenous in cells; host or cells: MV4-11
- Sequence (P51532 whole entry): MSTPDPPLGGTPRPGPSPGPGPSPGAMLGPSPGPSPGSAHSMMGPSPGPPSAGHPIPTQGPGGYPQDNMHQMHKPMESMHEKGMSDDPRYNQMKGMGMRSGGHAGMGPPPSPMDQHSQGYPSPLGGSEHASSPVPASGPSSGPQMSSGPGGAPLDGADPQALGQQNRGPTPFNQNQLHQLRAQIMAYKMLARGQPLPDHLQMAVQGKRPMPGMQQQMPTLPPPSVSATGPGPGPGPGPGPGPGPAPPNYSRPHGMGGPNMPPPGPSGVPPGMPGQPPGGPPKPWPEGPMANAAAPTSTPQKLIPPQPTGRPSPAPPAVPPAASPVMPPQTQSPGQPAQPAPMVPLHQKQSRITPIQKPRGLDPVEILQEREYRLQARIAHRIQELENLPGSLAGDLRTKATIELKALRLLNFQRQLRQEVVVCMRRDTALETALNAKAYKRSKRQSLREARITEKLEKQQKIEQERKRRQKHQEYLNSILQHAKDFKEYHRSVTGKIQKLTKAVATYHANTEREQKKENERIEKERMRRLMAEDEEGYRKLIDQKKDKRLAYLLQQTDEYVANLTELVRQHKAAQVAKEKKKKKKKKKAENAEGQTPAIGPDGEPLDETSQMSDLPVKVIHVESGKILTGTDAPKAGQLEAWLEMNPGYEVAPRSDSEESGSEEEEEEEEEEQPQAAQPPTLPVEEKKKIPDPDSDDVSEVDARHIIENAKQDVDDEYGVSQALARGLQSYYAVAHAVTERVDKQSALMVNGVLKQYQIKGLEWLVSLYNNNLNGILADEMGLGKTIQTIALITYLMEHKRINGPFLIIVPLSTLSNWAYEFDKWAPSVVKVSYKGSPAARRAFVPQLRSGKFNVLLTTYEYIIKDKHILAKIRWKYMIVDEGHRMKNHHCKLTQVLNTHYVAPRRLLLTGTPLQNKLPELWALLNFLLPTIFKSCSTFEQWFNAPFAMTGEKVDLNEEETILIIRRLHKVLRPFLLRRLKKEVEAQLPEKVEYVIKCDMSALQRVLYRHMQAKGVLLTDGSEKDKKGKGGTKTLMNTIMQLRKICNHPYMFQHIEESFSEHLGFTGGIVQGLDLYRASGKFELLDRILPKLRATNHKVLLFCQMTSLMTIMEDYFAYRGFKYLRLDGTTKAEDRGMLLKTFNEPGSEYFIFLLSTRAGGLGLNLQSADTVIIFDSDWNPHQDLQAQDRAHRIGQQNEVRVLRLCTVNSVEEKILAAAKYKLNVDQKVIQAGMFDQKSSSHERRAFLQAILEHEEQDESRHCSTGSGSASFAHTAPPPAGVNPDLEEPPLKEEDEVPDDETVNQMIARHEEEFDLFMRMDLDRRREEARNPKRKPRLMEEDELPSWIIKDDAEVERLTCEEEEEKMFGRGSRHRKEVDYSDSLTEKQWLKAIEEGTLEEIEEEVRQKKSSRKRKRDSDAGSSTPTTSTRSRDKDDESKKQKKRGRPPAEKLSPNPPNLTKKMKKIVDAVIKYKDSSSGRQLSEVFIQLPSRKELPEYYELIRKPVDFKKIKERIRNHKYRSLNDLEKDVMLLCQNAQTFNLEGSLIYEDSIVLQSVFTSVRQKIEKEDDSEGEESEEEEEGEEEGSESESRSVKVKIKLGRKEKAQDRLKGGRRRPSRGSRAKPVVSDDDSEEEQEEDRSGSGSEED
- Procedure details: SMARCA4 Western blot degradation in MV4-11 cells
- Format: cell-based
- Measurement parameters: MV4-11 cells, 24 h; read-out: SMARCA4 MSD MV411 degradation 24 h: Mean external-Abs DC50
Test readout: DC50

| Compound | Assayed target | Result |
| --- | --- | --- |
| Cc1ncsc1-c1ccc(CNC(=O)[C@@H]2C[C@@H](O)CN2C(=O)[C@@H](NC(=O)[C@H]2CCC3(CC2)C[C@H](N2CCC(c4cnc(N5CCN6c7cc(-c8ccccc8O)nnc7NC[C@H]6C5)nc4)CC2)C3)C(C)(C)C)cc1 (single isomer, unassigned) [I-70] | SMARCA4 (Homo sapiens, UniProt P51532) | > 100 nM |
| C#Cc1ccc(CNC(=O)[C@@H]2C[C@@H](O)CN2C(=O)[C@@H](NC(=O)N2CCC(N3CC4(CC(N5CC6(CC(N7CCc8[nH]c9nnc(-c%10ccccc%10O)cc9c8[C@H]7C)C6)C5)C4)C3)CC2)C(C)(C)C)cc1 | SMARCA4 (Homo sapiens, UniProt P51532) | > 100 nM |
| C#Cc1ccc(CNC(=O)[C@@H]2C[C@@H](O)CN2C(=O)[C@@H](NC(=O)[C@H]2CCC3(CC2)C[C@H](N2CCC(N4CC5(CC(N6CCN7c8cc(-c9ccccc9O)nnc8NC[C@H]7C6)C5)C4)CC2)C3)C(C)(C)C)cc1 (single isomer, unassigned) [I-223] | SMARCA4 (Homo sapiens, UniProt P51532) | > 100 nM |
| C#Cc1ccc(CNC(=O)[C@@H]2C[C@@H](O)CN2C(=O)[C@@H](NC(=O)N2CC3(CC(N4CCC(c5cnc(N6CCc7[nH]c8nnc(-c9ccccc9O)cc8c7[C@H]6C)nc5)CC4)C3)C2)C(C)(C)C)c(OC)c1 | SMARCA4 (Homo sapiens, UniProt P51532) | 10 to 100 nM |
